Target: T1, asialofetuin (UniProt P12763 19-359, limits assumed, glycoprotein; desialylated glycans, described as L-fucose bearing)
T1 construct: also called L-fucose bearing asialofetuin; model glycoprotein
T1 sequence (looked up): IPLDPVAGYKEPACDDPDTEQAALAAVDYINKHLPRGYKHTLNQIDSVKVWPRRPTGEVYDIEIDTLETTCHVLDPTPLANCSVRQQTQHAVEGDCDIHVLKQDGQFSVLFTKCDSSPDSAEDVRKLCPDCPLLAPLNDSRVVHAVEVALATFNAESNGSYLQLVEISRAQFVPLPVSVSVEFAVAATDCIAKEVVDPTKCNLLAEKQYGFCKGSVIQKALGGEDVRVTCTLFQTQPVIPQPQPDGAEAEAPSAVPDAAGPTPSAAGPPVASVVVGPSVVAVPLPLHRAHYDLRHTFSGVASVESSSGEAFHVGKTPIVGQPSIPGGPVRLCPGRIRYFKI
Assay: ITC
Bridges are numbered along the chain shown (N, C = ends). Where no end group is shown, it is not given here. [ ]: non-standard residue; d: D form.
Provide the recorded pKd for the entries that follow.
The value called pKd is obtained by taking minus log10 of the concentration in mol/L.

Request: Which pKd is listed for RVFSLCNATYPYKGACP (disulfide 6-16) [Control peptide (scrambled OL sequence)] ?
Result: 3.12

Request: Request the reported pKd associated with Y[dA]GF[dL]KCFRYPNGVLACT (disulfide 7-17) [DADLE-OL II]
Result: 4.48

Request: Query: pKd; subject: YASPKCFRYPNGVLACT (disulfide 6-16, Synthetic copy of the natural product; on-resin disulfide formation by I2 oxidation; also called unmodified OL; OL natural product) [Odorranalectin (OL)]
Result: 4.19

Request: Quick one: pKd for YASPKCFRY[dA]GF[dL]LACT (disulfide 6-16) [DADLE-OL] ?
Result: 4.38
